Target Of Assay: endogenous hamster calcitonin receptor (hamster)
Bridge positions count the residues as written; N and C are the ends.
Overview of reported % SCT EC50 (CRE-linked luciferase induction) across a group of binders:
Readout: % SCT EC50 (CRE-linked luciferase induction) (% SCT EC50)

Binder: CSNLSTCVLGKLSQELHKLQTYPRTNTGSGTP (N-terminal amino group acylated with DL-pipecolinic acid (amide linkage); C-terminal amide; disulfide Cys1-Cys7) [DL-pipecolinic acid modified salmon calcitonin]
Observed Measurement: 147

Binder: {picolinic acid}-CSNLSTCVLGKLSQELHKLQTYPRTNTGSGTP-NH2 (disulfide 1-7) [Pycolinyl-modified Calcitonin]
Observed Measurement: 98

Binder: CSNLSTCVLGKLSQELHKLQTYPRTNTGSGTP (N-terminal amino group acylated with isonipecotic acid (amide linkage); C-terminal amide; disulfide Cys1-Cys7) [isonipecotic acid modified salmon calcitonin]
Observed Measurement: 106

Binder: {nipecotic acid}-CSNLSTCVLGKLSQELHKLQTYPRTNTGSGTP-NH2 (disulfide 1-7) [nipecotic acid modified salmon calcitonin]
Observed Measurement: 152
